Every entry's value here was drawn from paper PMC4072508.

# SYSTEM NAME: Mcl-1 (Homo sapiens)
# Construct: myc-Mcl-1 SPOT array & FP; made in house
# Sequence (Q07820 with tags, fused parts or gaps): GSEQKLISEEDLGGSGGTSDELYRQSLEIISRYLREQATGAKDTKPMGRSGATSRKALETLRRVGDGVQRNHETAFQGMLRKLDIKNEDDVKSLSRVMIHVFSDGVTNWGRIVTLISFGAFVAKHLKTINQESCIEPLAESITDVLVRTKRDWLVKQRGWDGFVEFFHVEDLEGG
# PROTOCOL TEXT: LUMIER full-length protein interaction
# Assay type: binding
# TEST SETTINGS: LUMIER results for Mcl-1; Z-score relative to Gaussian fit of the data; experiment 2, duplicate 1
ENDPOINT NAME: z-score 2.1

Solved cases (3 shown):
SUBSTANCE	SYSTEM NAME	z-score 2.1
PCNXL2 (LLDFFMVSILFSKLGDLLHKLQFVLT)	Mcl-1 (Homo sapiens)	0.4915
FUT8 (KKLKNLEGNELQRHADEFLLDLGHHE)	Mcl-1 (Homo sapiens)	-0.1664
BCL2L11 (MRPEIWIAQELRRIGDEFNAYYARRV)	Mcl-1 (Homo sapiens)	11.6048

[1] CYBB (APEEDFFSIHIRIVGDWTEGLFNACG)
[2] WRAP53 (RKDAELLCWDLRQSGYPLWSLGREVT)
For the pair 1 and 2 , which member has the lower z-score 2.1 number? I would appreciate it if you answered with the label of your choice.
1
(1: -0.8677, 2: 1.332)

[P] RBL1 (WTLFVYTKGNFRMIGDDLVNSYHLLL)
[Q] FADD (APGEEDLCAAFNVICDNVGKDWRRLA)
[R] TTC31 (DLSSTFVSLALRKVGDWPLSARREKG)
[S] DPF3 (SCMATVIHNPLKALGDQFYKEAIEHC)
Arrange these substances by their z-score 2.1, starting with the largest number. Reply with the item labels sorted in the order that was asked for.
P, Q, S, R

[A] DHX30 (PVESSWIAPELRLQSDDILPLGKDSG)
[B] TMEM184C (SDIRDDISEQVRHVGRTVRGHPRKKL)
Quick check, higher z-score 2.1 between A and B ? I would appreciate it if you answered with the label of your choice.
B
(B: 2.487, A: 1.579)
